Below: a set of entries, each annotated with reported pIC50.
Molecular target: C-C chemokine receptor type 3 (Homo sapiens, UniProt P51677)
Sequence (P51677 whole entry): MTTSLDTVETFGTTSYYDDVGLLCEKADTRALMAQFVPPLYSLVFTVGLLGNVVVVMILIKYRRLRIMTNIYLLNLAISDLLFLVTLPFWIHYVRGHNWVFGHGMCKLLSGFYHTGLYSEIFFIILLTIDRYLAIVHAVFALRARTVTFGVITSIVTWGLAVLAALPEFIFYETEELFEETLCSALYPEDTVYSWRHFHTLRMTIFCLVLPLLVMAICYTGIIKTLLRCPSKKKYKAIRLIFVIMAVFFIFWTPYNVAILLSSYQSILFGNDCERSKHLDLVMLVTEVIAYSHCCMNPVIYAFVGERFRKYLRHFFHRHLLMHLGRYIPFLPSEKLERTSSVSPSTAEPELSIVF
Experiment: Displacement of [125I] eotaxin from human CCR3 receptor in CHO cells
Type: cell-based
pIC50: −log10 of the molar value.
measured metric: pIC50

> print(dat)
                                test.smiles  recorded.measurement
1  CCc1cc(NC(=O)N[C@H](C)[C@@H](O)CN(CCCc2ccc(F)cc2)CC23CC4CC(CC(C4)C2)C3)cc(-c2nnnn2C)c1                  6.68
2  CCc1cc(NC(=O)N[C@H](C)[C@@H](O)CN(CCCc2ccc(F)cc2)C2CC2)cc(-c2nnnn2C)c1                  9.22
3  Cn1nnnc1-c1cccc(NC(=O)N[C@@H]2CCCC[C@H]2CNCCCc2ccc(F)cc2)c1                  8.43
4  CCc1cc(NC(=O)N[C@H](C)[C@@H](O)CN(CCCc2ccc(F)cc2)C(C)=O)cc(-c2nnnn2C)c1                  8.22
5  CCCN(CCCc1ccc(F)cc1)C[C@H](O)[C@@H](C)NC(=O)Nc1cc(CC)cc(-c2nnnn2C)c1                  9.30
6  C[C@@H](NC(=O)Nc1cccc(-c2nnnn2C)c1)[C@@H](O)CN1CCC[C@@H](Cc2ccc(F)cc2)C1                  9.52
7  C[C@@H](NC(=O)Nc1cccc(-c2nnnn2C)c1)[C@@H](O)CN(CCCc1ccc(F)cc1)C1CC1                  9.40
8  CCc1cc(NC(=O)N[C@H](C)[C@@H](O)CN(C)[C@@H](C)[C@@H](O)c2ccccc2)cc(-c2nnnn2C)c1                  9.30
